For each record, write down the corresponding EC50.
System: KG-1a
assayComment: Antiproliferative activity against human KG-1a cells assessed as decrease in cell viability incubated for 72 hrs by trypan blue exclusion assay
Format: functional, cell-based

-- ask For the compound O=C1c2ccccc2C(=O)c2c1cc(S(=O)(=O)Nc1ccc(C(F)(F)F)cc1)c(O)c2O , give its reported EC50.
-- reply 17.1 µM

-- ask Item O=C1c2ccccc2C(=O)c2c1ccc(O)c2O : provide EC50
-- reply 60.2 µM

* * *

Record form. Attribute: pIC50. Fill in for each entry.
subjectOfTest: Phosphoglycerate mutase 1 (Homo sapiens)
Sequence (P18669 whole entry): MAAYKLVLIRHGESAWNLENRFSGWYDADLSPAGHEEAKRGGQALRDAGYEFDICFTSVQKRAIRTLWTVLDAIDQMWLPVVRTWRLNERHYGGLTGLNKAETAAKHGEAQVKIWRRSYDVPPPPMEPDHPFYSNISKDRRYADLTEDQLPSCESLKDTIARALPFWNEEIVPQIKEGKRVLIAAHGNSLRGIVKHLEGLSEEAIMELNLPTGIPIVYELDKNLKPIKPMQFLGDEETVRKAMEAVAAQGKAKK
assayComment: Inhibition of recombinant PGAM1 (unknown origin) assessed as decrease in absorbance in presence of LDH, pyruvate kinase M2 and NADH by spectroscopic analysis
FYI, pIC50 means -log10 of a concentration in mol per litre.

-- ask Specify reported pIC50 for the compound shown: O=C1c2ccccc2C(=O)c2c1cc(NS(=O)(=O)c1ccc(N3CCCC3)cc1)c(O)c2O
-- reply 6.98

-- ask State its pIC50 for this compound: CN(C)c1ccc(S(=O)(=O)Nc2cc3c(c(O)c2O)C(=O)c2ccccc2C3=O)cc1
-- reply 6.11

-- ask Kindly indicate its recorded pIC50. Item: O=C1c2ccccc2C(=O)c2c1cc(NS(=O)(=O)O)c(O)c2O
-- reply 5.27

Source listed as ChEMBL document CHEMBL5247579.
